Readings of KD (fold weaker), against chimeric 1A6 for the listed binders
- target.desc: T1, Human FGF19 (human, UniProt O95750 25-216)
- T1 construct: Recombinant soluble protein; also called huFGF19; Fibroblast growth factor 19
- experiment.notes: SPR (BIAcore 2000), IgG on chip, soluble human FGF19

binder: hu1A6.A100bP/M100kS (HVR-H3) (antibody, name in Kabat numbering, V domains shown, also called A100bP/M100cS) VH: EVQLVESGGGLVQPGGSLRLSCAASGFSLTTYGVHWVRQAPGKGLEWVGVIWPGGGTDYNAAFISRFTISRDNSKNTLYLQMNSLRAEDTAVYYCVRKEYANLYPSDYWGQGTLVTVSS VL: DIQMTQSPSSLSASVGDRVTITCKASQDINSFLSWYQQKPGKAPKLLIYRANRLVDGVPSRFSGSGSGTDFTLTISSLQPEDFATYYCLQYDEFPLTFGQGTKVEIKR
unit.annotation: fold
KD (fold weaker), against chimeric 1A6: 0.9
//
binder: hu1A6.H35Q (HVR-H1) (antibody, name in Kabat numbering, V domains shown) VH: EVQLVESGGGLVQPGGSLRLSCAASGFSLTTYGVQWVRQAPGKGLEWVGVIWPGGGTDYNAAFISRFTISRDNSKNTLYLQMNSLRAEDTAVYYCVRKEYANLYAMDYWGQGTLVTVSS VL: DIQMTQSPSSLSASVGDRVTITCKASQDINSFLSWYQQKPGKAPKLLIYRANRLVDGVPSRFSGSGSGTDFTLTISSLQPEDFATYYCLQYDEFPLTFGQGTKVEIKR
unit.annotation: fold
KD (fold weaker), against chimeric 1A6: 6.6
//
binder: hu1A6.S34A (HVR-L1) (antibody, V domains shown) VH: EVQLVESGGGLVQPGGSLRLSCAASGFSLTTYGVHWVRQAPGKGLEWVGVIWPGGGTDYNAAFISRFTISRDNSKNTLYLQMNSLRAEDTAVYYCVRKEYANLYAMDYWGQGTLVTVSS VL: DIQMTQSPSSLSASVGDRVTITCKASQDINSFLAWYQQKPGKAPKLLIYRANRLVDGVPSRFSGSGSGTDFTLTISSLQPEDFATYYCLQYDEFPLTFGQGTKVEIKR
unit.annotation: fold
KD (fold weaker), against chimeric 1A6: 9.1
//
binder: hu1A6.A100bR (HVR-H3) (antibody, name in Kabat numbering, V domains shown) VH: EVQLVESGGGLVQPGGSLRLSCAASGFSLTTYGVHWVRQAPGKGLEWVGVIWPGGGTDYNAAFISRFTISRDNSKNTLYLQMNSLRAEDTAVYYCVRKEYANLYRMDYWGQGTLVTVSS VL: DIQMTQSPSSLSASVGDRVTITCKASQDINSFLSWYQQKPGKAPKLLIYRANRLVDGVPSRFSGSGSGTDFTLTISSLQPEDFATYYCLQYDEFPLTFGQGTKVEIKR
unit.annotation: fold
KD (fold weaker), against chimeric 1A6: 2.3
//
binder: hu1A6.Q90S (HVR-L3) (antibody, V domains shown) VH: EVQLVESGGGLVQPGGSLRLSCAASGFSLTTYGVHWVRQAPGKGLEWVGVIWPGGGTDYNAAFISRFTISRDNSKNTLYLQMNSLRAEDTAVYYCVRKEYANLYAMDYWGQGTLVTVSS VL: DIQMTQSPSSLSASVGDRVTITCKASQDINSFLSWYQQKPGKAPKLLIYRANRLVDGVPSRFSGSGSGTDFTLTISSLQPEDFATYYCLSYDEFPLTFGQGTKVEIKR
unit.annotation: fold
KD (fold weaker), against chimeric 1A6: 16
//
binder: hu1A6.V34A (HVR-H1) (antibody, name in Kabat numbering, V domains shown) VH: EVQLVESGGGLVQPGGSLRLSCAASGFSLTTYGAHWVRQAPGKGLEWVGVIWPGGGTDYNAAFISRFTISRDNSKNTLYLQMNSLRAEDTAVYYCVRKEYANLYAMDYWGQGTLVTVSS VL: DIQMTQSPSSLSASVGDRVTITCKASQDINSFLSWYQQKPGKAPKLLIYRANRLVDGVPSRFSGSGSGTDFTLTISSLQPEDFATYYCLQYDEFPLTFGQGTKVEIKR
unit.annotation: fold
KD (fold weaker), against chimeric 1A6: 10.5
//
binder: chimeric anti-FGF19 antibody 1A6 (antibody, V domains shown, also called chimeric 1A6; ch1A6) VH: QVQLKQSGPGLVQPSQSLSITCTVSGFSLTTYGVHWVRQSPGKGLEWLGVIWPGGGTDYNAAFISRLSITKDNSKSQVFFKMNSLLANDTAIYFCVRKEYANLYAMDYWGQGTLLTVSA VL: DIKMTQSPSSMYASLGERVTIPCKASQDINSFLSWFQQKPGKSPKTLIYRANRLVDGVPSRFSGSGSGQDYSLTISSLEYEDMGIYYCLQYDEFPLTFGAGTKVEIKR
unit.annotation: fold
KD (fold weaker), against chimeric 1A6: 1
